Assay Info: in vivo
Reported Conditions: female, BALB/c, mouse, iv, 5 mg/kg, Sample concentration in plasma (individual mouse)
Starred links: 1 amine or outer side, 2 acyl side, 3 side chain; linkers in the order of their positions; H or OH if unused. Positions of bridges follow the written chain, without caps; N, C: chain ends. Non-standard residues stand in square brackets, D forms with d. Residues, ends and D or L forms follow the SMILES beside them. *: point of attachment. dAsp(3R-OH) = N[C@@H](C(=O)O)[C@@H](O)C(=O)O; X1 = NC[C@H](O)[C@@H](N[*:1])C(=O)[*:2]; X2 = CCC(C)(O)[C@H](N[*:1])C(=O)[*:2]; d(aIle) = CC[C@H](C)[C@@H](N)C(=O)O; Myristoyl = CCCCCCCCCCCCCC(=O)*; dOrn = NCCC[C@@H](N)C(=O)O; hSer = N[C@@H](CCO)C(=O)O

{"columns": ["Compound", "Unit Name", "level at 0.5 h"],
 "data": [
  ["CCCCCCCCCCCCCC(=O)N[C@H](CCCN)C(=O)N[C@@H](CO)C(=O)N[C@H](C(=O)N[C@@H](C(=O)N[C@@H](C(=O)N[C@@H]1C(=O)NCC(=O)N[C@@H](C(C)(O)CC)C(=O)N[C@H]([C@@H](C)CC)C(=O)N[C@@H](CCO)C(=O)N[C@@H](C)C(=O)N[C@H]([C@@H](C)CC)C(=O)N[C@@H](CCC(=O)O)C(=O)O[C@@H]1C)[C@@H](O)CN)[C@@H](O)C(=O)O)C(C)C (stereo partly drawn) [Compound 1, Turnercyclamycin A] (Myristoyl-[dOrn]SV[dAsp(3R-OH)][X1]TG[X2][d(aIle)][hSer]A[d(aIle)]E; ester 6-C)", "ng/mL", 34400]
]}
